Test system: SK-MEL-5 melanoma
Assay: NCI-60 one-dose screen, 48 h
Conditions: 10 µM unless noted
The panel holds about 83,000 compounds, 20% with a hit somewhere; the sample as a whole holds those more often. Active and inactive are the calls of the source. The calls were made as follows: active = growth percent below 10; inactive = the rest.
The categories you may choose from are active, inactive

Check out these entries, answers already filled in.
[[record]]
compound = "CS(=O)c1nccc(-c2c(-c3ccc(F)c(OCCc4ccc(F)cc4)c3)nc3sccn23)n1 (stereo not given)"
label_class = "inactive"

[[record]]
compound = "Brc1cccc(/C=N/Nc2nc(N/N=C/c3cccc(Br)c3)nc(N3CCOCC3)n2)c1"
label_class = "inactive"

[[record]]
compound = "COc1ccc(-c2nc3cc(Cl)c(Cl)cc3n2CC(=O)N=Nc2c(O)[nH]c3ccccc23)cc1"
label_class = "inactive"

[[record]]
compound = "CCOC(=O)c1c(NCC(=O)Nc2ccc(Br)cc2)sc2c1CCCC2"
label_class = "inactive"


Let us examine a further case.
Just curious, what result did Nc1ccc(-c2nnc(SCc3ccc(O)c4ncccc34)n2-c2ccccc2)cc1 get here? active
